Biological target: T1, biotinylated Fc-fused monkey CD137 (monkey, biotin on the AviTag)
T1 construct: also called cyCD137-Fc-BAP
T1 sequence (chain, as listed by the source limits assumed): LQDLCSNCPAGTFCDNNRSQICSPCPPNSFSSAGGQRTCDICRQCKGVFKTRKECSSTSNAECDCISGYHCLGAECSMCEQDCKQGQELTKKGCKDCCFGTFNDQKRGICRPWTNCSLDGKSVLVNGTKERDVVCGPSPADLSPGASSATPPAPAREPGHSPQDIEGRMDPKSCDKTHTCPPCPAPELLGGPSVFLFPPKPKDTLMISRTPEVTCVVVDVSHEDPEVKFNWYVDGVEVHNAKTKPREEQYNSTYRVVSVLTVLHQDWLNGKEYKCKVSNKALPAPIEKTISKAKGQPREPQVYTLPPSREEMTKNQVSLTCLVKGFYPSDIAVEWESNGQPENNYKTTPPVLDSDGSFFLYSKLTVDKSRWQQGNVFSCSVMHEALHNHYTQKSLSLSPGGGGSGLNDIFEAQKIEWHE
Test: ELISA, 1 mM ADP, 10 ug/mL
Set-up: reference not given here
property.label: absorbance ratio
Lab note: jot the number down without any unit.

Q. Output absorbance ratio of dBBAT122-P253 (antibody, human IgG1, lambda, V domains shown) VH: EVQLVESGGDLVKPGGGLRLSCAASGFTFSTYTMNWVRQAPGKGLEWVSSISSRSNYKFYADSVKGRFTISRDNAKNSLYLQMNSLRAEDTAVYYCARFGGKNNMNWVFDYWGQGTLVTVSS VL: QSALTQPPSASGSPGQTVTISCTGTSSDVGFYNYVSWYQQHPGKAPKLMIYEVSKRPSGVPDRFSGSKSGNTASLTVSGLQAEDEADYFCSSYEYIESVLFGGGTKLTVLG
A. 31.9

Q. Output absorbance ratio of dBBAT037-P253 (antibody, human IgG1, lambda, V domains shown) VH: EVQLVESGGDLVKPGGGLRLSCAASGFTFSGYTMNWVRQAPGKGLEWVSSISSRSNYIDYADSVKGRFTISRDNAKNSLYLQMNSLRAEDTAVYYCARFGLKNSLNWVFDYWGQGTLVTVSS VL: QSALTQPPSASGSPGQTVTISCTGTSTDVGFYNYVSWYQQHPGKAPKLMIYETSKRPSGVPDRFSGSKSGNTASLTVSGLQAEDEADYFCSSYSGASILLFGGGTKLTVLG
A. 32.5

Q. Output absorbance ratio of dBBAT021-P253 (antibody, human IgG1, lambda, V domains shown) VH: EVQLVESGGDLVKPGGGLRLSCAASGFTFSSYTMNWVRQAPGKGLEWVSSISSRSNYRDYADSVKGRFTISRDNAKNSLYLQMNSLRAEDTAVYYCARYGGKNILNWVFDYWGQGTLVTVSS VL: QSALTQPPSASGSPGQTVTISCTGTSSDVGFYNYVSWYQQHPGKAPKLMIYEVSKRPSGVPDRFSGSKSGNTASLTVSGLQAEDEADYFCSSYSSDTHVGFGGGTKLTVLG
A. 40.5

Entry source: patent US20230272099A1
